- Test system: Mycobacterium tuberculosis
- experimentalProtocol: Antitubercular activity against multidrug resistant Mycobacterium tuberculosis isolate 2
- Type: functional
Reported MIC is given for each of the following compounds.
metric: MIC (µg/mL)

> print(dat)
                            substancesmiles  limitqualifier  testvalue
1  CNC(=O)c1c(-c2ccc(O)cc2)oc2ccc(O)c(CN3CCCCC3)c12               <      0.016
2  CCO/N=C1\C(=O)N(CCCCCCOc2ccc3oc(-c4ccc(OC)cc4)c(C(=O)OCC)c3c2)c2ccccc21               =       3.86
3  CCOC(=O)c1c(-c2ccc(OC)cc2)oc2ccc(OCCCCCN3C(=O)/C(=N\OC)c4cc(F)ccc43)cc12               =       4.24
4  CCOC(=O)c1c(-c2ccc(OC)cc2)oc2ccc(OCCCCCCN3C(=O)C(=O)c4cc(F)ccc43)cc12               =       12.9
5  CCO/N=C1\C(=O)N(CCCOc2ccc3oc(-c4ccc(OC)cc4)c(C(=O)OCC)c3c2)c2ccccc21               =       5.88
6  CCOC(=O)c1c(-c2ccccc2)oc2ccc(OCCCN3C(=O)/C(=N\OC)c4cc(OC)ccc43)cc12               =       0.27
7  CCO/N=C1\C(=O)N(CCCCOc2ccc3oc(-c4ccc(OC)cc4)c(C(=O)OCC)c3c2)c2ccccc21               =       3.42
8  O=C(O)c1cn(C2CC2)c2cc(N3CCNCC3)c(F)cc2c1=O               =       0.27

----------
Entries and their MIC values follow.
- Test system: Mycobacterium tuberculosis
- experimentalProtocol: Antitubercular activity against multidrug resistant Mycobacterium tuberculosis isolate 2
- Format: functional
metric: MIC

substanceSmiles	metric	testValue
CCOC(=O)c1c(-c2ccc(F)cc2)oc2ccc(OCCCCCCN3C(=O)C(=O)c4cc(F)ccc43)cc12	MIC	2.98 µg/mL
CCOC(=O)c1c(-c2ccc(OC)cc2)oc2ccc(OCCCCCCN3C(=O)/C(=N\NC(N)=S)c4ccccc43)cc12	MIC	0.48 µg/mL
CCOC(=O)c1c(-c2ccc(OC)cc2)oc2ccc(OCCCCCCN3C(=O)/C(=N\OC)c4ccccc43)cc12	MIC	1.87 µg/mL
CO[C@H]1/C=C/O[C@@]2(C)Oc3c(C)c(O)c4c(O)c(c(/C=N/N5CCN(C)CC5)c(O)c4c3C2=O)NC(=O)/C(C)=C\C=C\[C@H](C)[C@H](O)[C@@H](C)[C@@H](O)[C@@H](C)[C@H](OC(C)=O)[C@@H]1C	MIC	> 40 µg/mL
CCO/N=C1\C(=O)N(CCCOc2ccc3oc(-c4ccc(OC)cc4)c(C(=O)OCC)c3c2)c2ccc(OC)cc21	MIC	2.12 µg/mL
CCOC(=O)c1c(-c2ccc(OC)cc2)oc2ccc(OCCCCCCN3C(=O)/C(=N\OC)c4cc(F)ccc43)cc12	MIC	3.56 µg/mL
CCOC(=O)c1c(-c2ccccc2)oc2ccc(OCCCN3C(=O)/C(=N\OC)c4ccccc43)cc12	MIC	0.91 µg/mL

----------
- Tested on: Mycobacterium tuberculosis
- experimentalProtocol: Antitubercular activity against multidrug resistant Mycobacterium tuberculosis isolate 2
- Format: functional
metric: MIC (µg/mL)

> print(dat)
                            substancesmiles  limitqualifier  testvalue
1  CCOC(=O)c1c(-c2ccc(OC)cc2)oc2ccc(OCCCCCCN3C(=O)/C(=N\NC(N)=S)c4cc(F)ccc43)cc12               =        0.9
2  CCOC(=O)c1c(-c2ccc(OC)cc2)oc2ccc(OCCCN3C(=O)/C(=N\OC)c4ccccc43)cc12               =       0.21
3                           NNC(=O)c1ccncc1               >         40
4  CCOC(=O)c1c(-c2ccc(OC)cc2)oc2ccc(OCCCN3C(=O)/C(=N\OC)c4cc(OC)ccc43)cc12               =       0.29
5  CCOC(=O)c1c(-c2ccc(OC)cc2)oc2ccc(OCCCCN3C(=O)/C(=N\OC)c4ccccc43)cc12               =       0.16
